system: Fibroblast; assay: Multiplex assay against human fibroblast; assay type: toxicity, cell-based; conditions: 48 h, 1 µM, compound concentration 1 uM, replicate 2
Listed here are compounds together with their documented Population Normal (%).
Answer with a number only, understood to be in %.

CC(C)C[C@H](CO)Nc1nc(S[C@@H](C)c2ccccc2)nc2nc(N)sc12 | 95
C=CCN1C[C@H](C(=O)N(CCCN(C)C)C(=O)NCC)C[C@@H]2c3cccc4[nH]cc(c34)C[C@H]21 | 92
OCCCNc1cc(-c2ccnc(Nc3cccc(Cl)c3)n2)ccn1 | 92
C[C@H](NC(=O)CNC(=O)c1cccc(Cl)c1)c1ccccc1 | 96
CC(C)(O)C(=O)N1CCN(c2ccc(C(F)(F)F)c(C3=C(c4c[nH]c5ccccc45)C(=O)NC3=O)c2)CC1 | 92

// sample CN(C)C(=O)Cn1cc(-c2ccc(-c3nnc4ccccn34)cc2)cn1 , its Population Normal (%) was 94

====

system: U2OS; test: Multiplex assay against U2OS; type: toxicity, cell-based; conditions: human, 48 h, 1 µM, compound concentration 1 uM, replicate 1
Measure: Population Fragmented Nuclei (%)
Answer with a number only, understood to be in %.

Illustrative cases are given below, each with its answer.
O=C(O)CCC/C=C\CC1C(O)CC(O)C1/C=C/C(O)COc1cccc(Cl)c1 (stereo not drawn) [CLOPROSTENOL] | 20
Cc1sc2c(c1C)C(c1ccc(Cl)cc1)=N[C@H](CC(=O)OC(C)(C)C)c1nnc(C)n1-2 | 20

// next item, Population Fragmented Nuclei (%) requested
// sample Cc1cc(-c2ccc3c(c2)CC[C@H]3N2CC3(CCN(C(=O)Cc4cn5cc(C)sc5n4)CC3)C2)ncn1 [PF-5190457] , its Population Fragmented Nuclei (%) was 20

====

Listed here are compounds together with their documented Population Apoptotic (%).
test system: HEK-293T; assay: Multiplex assay against HEK293T; assay type: toxicity, cell-based; details: human, 24 h, 10 µM, compound concentration 10 uM, replicate 2
Answer with a number only, understood to be in %.

Illustrative cases are given below, each with its answer.
COc1cc2nc(N3CCN(C(=O)c4ccco4)CC3)nc(N)c2cc1OC.Cl [PRAZOSIN HYDROCHLORIDE] | 54
C=CCN1C[C@H](C(=O)N(CCCN(C)C)C(=O)NCC)C[C@@H]2c3cccc4[nH]cc(c34)C[C@H]21 [CABERGOLINE] | 42
CN1CCN2c3ccccc3Cc3ccccc3C2C1.Cl (stereo not given) [MIANSERIN HYDROCHLORIDE] | 32

// sample C[C@H](NC(=O)CNC(=O)c1cccc(Cl)c1)c1ccccc1 , its Population Apoptotic (%) was 58

// sample CN(C)C(=O)Cn1cc(-c2ccc(-c3nnc4ccccn34)cc2)cn1 , its Population Apoptotic (%) was 61

// sample Cl.Cl.OCCOCCN1CCN(C(c2ccccc2)c2ccc(Cl)cc2)CC1 (stereo not given) [HYDROXYZINE HYDROCHLORIDE] , its Population Apoptotic (%) was 59

// sample CN1C[C@H](C(=O)N[C@]2(C)O[C@@]3(O)[C@@H]4CCCN4C(=O)[C@H](Cc4ccccc4)N3C2=O)C[C@@H]2c3cccc4[nH]cc(c34)C[C@H]21.CS(=O)(=O)O [DIHYDROERGOTAMINE MESYLATE] , its Population Apoptotic (%) was 32

// sample Cc1cc(NC(=O)NCCN2CCC(O)(Cc3ccccc3)CC2)c2ccccc2n1 [PALOSURAN] , its Population Apoptotic (%) was 51

// sample COc1cc(Nc2ncc3c(n2)-c2ccc(Cl)cc2C(c2c(F)cccc2OC)=NC3)ccc1C(=O)O [ALISERTIB] , its Population Apoptotic (%) was 56

// sample C[C@@H]1CC(=O)Nc2cccc(-c3ccc4c(c3)c(-c3cnn(C)c3)nn4C)c2N1 , its Population Apoptotic (%) was 57

====

test system: HEK-293T; experiment: Multiplex assay against HEK293T; format: toxicity, cell-based; conditions: human, 12 h, 10 µM, compound concentration 10 uM, replicate 2
Measure: Total Cell Count
The answer should be a number; do not append a unit.

Illustrative cases are given below, each with its answer.
Cn1cc(C(=O)OCC2CCN(CCNS(C)(=O)=O)CC2)c2ccccc21 | 393
Cc1cc(O)c(-c2ccc([C@@H](C)CN(C)C)cc2)c2c1[nH]c(=O)c1sccc12 | 195
CC(C)(O)C(=O)N1CCN(c2ccc(C(F)(F)F)c(C3=C(c4c[nH]c5ccccc45)C(=O)NC3=O)c2)CC1 | 203
Cc1c(Cc2ccc3ccccc3n2)c2cc(F)ccc2n1CC(=O)O [TIMAPIPRANT] | 354
O=c1nc2[nH]c3ccccc3nc-2c(=O)[nH]1 [ALLOXAZINE] | 323

# C[C@@H]1CC(=O)Nc2cccc(-c3ccc4c(c3)c(-c3cnn(C)c3)nn4C)c2N1 with HEK-293T: Total Cell Count is 345

# COc1cc2nc(N3CCN(C(=O)COc4c(OC)cccc4C(C)C)CC3)nc(N)c2cc1OC.Cl.Cl with HEK-293T: Total Cell Count is 286

# Cc1sc2c(c1C)C(c1ccc(Cl)cc1)=N[C@H](CC(=O)OC(C)(C)C)c1nnc(C)n1-2 with HEK-293T: Total Cell Count is 303

# CN1C[C@H](C(=O)N[C@]2(C)O[C@@]3(O)[C@@H]4CCCN4C(=O)[C@H](Cc4ccccc4)N3C2=O)C[C@@H]2c3cccc4[nH]cc(c34)C[C@H]21.CS(=O)(=O)O [DIHYDROERGOTAMINE MESYLATE] with HEK-293T: Total Cell Count is 435

# OCCCNc1cc(-c2ccnc(Nc3cccc(Cl)c3)n2)ccn1 with HEK-293T: Total Cell Count is 224

# CCn1c(-c2nc3cc(C(=O)N4CCCC(N)C4)ccc3n2C)cc2ccccc21.Cl (centres undefined) with HEK-293T: Total Cell Count is 398

# C=CCN1C[C@H](C(=O)N(CCCN(C)C)C(=O)NCC)C[C@@H]2c3cccc4[nH]cc(c34)C[C@H]21 [CABERGOLINE] with HEK-293T: Total Cell Count is 371

# Cc1cc(=O)n(C)c2cc(N3C(=O)CC[C@H](NS(=O)(=O)CC(C)C)[C@H]3c3ccc(Cl)cc3)ccc12 with HEK-293T: Total Cell Count is 331

# COc1c(Nc2ccc(S(C)(=O)=O)nc2C)ncnc1OC1CCN(C(=O)OC(C)C)CC1 [ADP-597] with HEK-293T: Total Cell Count is 238

====

tested on: Fibroblast; experiment: Multiplex assay against human fibroblast; format: toxicity, cell-based; conditions: 12 h, 10 µM, compound concentration 10 uM, replicate 2
Non-standard residues stand in square brackets, D forms with d. Residues, ends and D or L forms follow the SMILES beside them.
Listed here are compounds together with their documented Population Apoptotic (%).
Answer with a number only, understood to be in %.

Illustrative cases are given below, each with its answer.
CN(C)C(=O)Cn1cc(-c2ccc(-c3nnc4ccccn34)cc2)cn1 | 39
O=c1nc2[nH]c3ccccc3nc-2c(=O)[nH]1 | 41
C=CCN1C[C@H](C(=O)N(CCCN(C)C)C(=O)NCC)C[C@@H]2c3cccc4[nH]cc(c34)C[C@H]21 | 35

// sample CC(C)C[C@@H]1NC(=O)[C@@H](C(C)C)NC(=O)[C@@H]2CCCN2C(=O)[C@@H](CC(=O)O)NC(=O)[C@@H](Cc2c[nH]c3ccccc23)NC1=O [BQ-123] (cyclo(L[dW][dD]P[dV])) , its Population Apoptotic (%) was 33

// sample Cn1cc(C(=O)OCC2CCN(CCNS(C)(=O)=O)CC2)c2ccccc21 , its Population Apoptotic (%) was 25

// sample CCc1nn2c(C)cc(C)nc2c1Cc1ccc(-c2nnc(C3CCNCC3)o2)cc1 , its Population Apoptotic (%) was 14

// sample Cc1cc(=O)n(C)c2cc(N3C(=O)CC[C@H](NS(=O)(=O)CC(C)C)[C@H]3c3ccc(Cl)cc3)ccc12 , its Population Apoptotic (%) was 18

// sample C[C@H](NC(=O)CNC(=O)c1cccc(Cl)c1)c1ccccc1 , its Population Apoptotic (%) was 43

// sample CC(F)(F)CN1CCOc2c(nn(-c3ccccc3Cl)c2-c2ccc(Cl)cc2)C1=O , its Population Apoptotic (%) was 30

// sample Cc1cc(O)c(-c2ccc([C@@H](C)CN(C)C)cc2)c2c1[nH]c(=O)c1sccc12 , its Population Apoptotic (%) was 70

// sample COC(c1ccccc1)(c1ccccc1)[C@H](Oc1nc(C)cc(C)n1)C(=O)O , its Population Apoptotic (%) was 33

// sample O=C(Nc1cc(-c2ccccc2)nn1-c1ccccc1F)c1ccc([N+](=O)[O-])cc1 , its Population Apoptotic (%) was 45

====

tested on: U2OS; experiment: Multiplex assay against U2OS; assay type: toxicity, cell-based; conditions: human, 48 h, 10 µM, compound concentration 10 uM, replicate 1
Listed here are molecules together with their documented Total Cell Count.
The answer should be a number; do not append a unit.

// sample O=C(O)CCC/C=C\CC1C(O)CC(O)C1/C=C/C(O)COc1cccc(Cl)c1 (centres undefined) , its Total Cell Count was 396

// sample Cc1cc(-c2ccc3c(c2)CC[C@H]3N2CC3(CCN(C(=O)Cc4cn5cc(C)sc5n4)CC3)C2)ncn1 , its Total Cell Count was 389

// sample C[C@@H]1CC(=O)Nc2cccc(-c3ccc4c(c3)c(-c3cnn(C)c3)nn4C)c2N1 , its Total Cell Count was 394

// sample CN1CCN2c3ccccc3Cc3ccccc3C2C1.Cl (centres undefined) [MIANSERIN HYDROCHLORIDE] , its Total Cell Count was 397
